B1: Far upstream element-binding protein 3, residues 75 to 150; numbered along this chain, Q96I24 (parent)
chain: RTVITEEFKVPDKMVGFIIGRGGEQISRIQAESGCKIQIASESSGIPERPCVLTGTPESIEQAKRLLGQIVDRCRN

# Variants of: B1
# Procedure text: abundance fitness (aPCA) (normalised: wild type 0, dead -1); higher = more abundant; growth selection in yeast, the domain comes from the species named
# Experimental conditions: Homo sapiens
Each entry falls in a class defined on abundance fitness; the bands are low value = under -0.1, medium value = from -0.1 up to -0.07, high value = -0.07 and over

In [3]: df
Out[3]:
                            sequence_record  group_label
0  RTVITEEFKVHDKMVGFIIGRGGEQISRIQAESGCKIQIASESSGIPERPCVLTGTPESIEQAKRLLGQIVDRCRN [P11H]    low value
1  RTVITEEFKVPDKMVGFIIGRGGEQISRIQAESGCKIQIAKESSGIPERPCVLTGTPESIEQAKRLLGQIVDRCRN [S41K]   high value
2  RTVITEEFKVPDKMVGFIIGRGGEQISRIQAESGCKIQIASESSGIPERPCVLTGTPESIEQQKRLLGQIVDRCRN [A63Q]    low value
3  RTVITEEFKVPDKMVGFIIGRGGEQHSRIQAESGCKIQIASESSGIPERPCVLTGTPESIEQAKRLLGQIVDRCRN [I26H]    low value
4  RTVITEEFKVPDKMVGFIIGRGGEQISRIQAESKCKIQIASESSGIPERPCVLTGTPESIEQAKRLLGQIVDRCRN [G34K]   high value

## Input Classify this variant: RTVITEEFKVPDKMVGFIIGRGGEQISRIQAESGCKIQIASESSGIPERPCVLTGTPESIPQAKRLLGQIVDRCRN [E61P]
## Output low value

## Input Which abundance fitness band matches RTVITEEFKVPDKMVGFIIGRGGEQISRIQAESGCKIQIASESSGIPERGCVLTGTPESIEQAKRLLGQIVDRCRN [P50G] ?
## Output high value

## Input Consider RTVITEEFKVPDKMVGFIIGRGGEIISRIQAESGCKIQIASESSGIPERPCVLTGTPESIEQAKRLLGQIVDRCRN [Q25I] . To which abundance fitness class does it belong?
## Output low value
